Tested on: SEM cells
Test: cell viability relative to DMSO control; higher = less cytotoxic
Conditions: RPMI 5 mM glucose + 10% dialyzed FBS; 48 h; 5.12 µM
For each record, write down the corresponding cell viability.
Give the number; % is assumed, so skip it.

## Input Using the record for CNCCCC12CCC(c3ccccc31)c1ccccc12 , state its measured cell viability.
## Output 106

## Input Using the record for CC1=C(C)C(=O)C(C(CCCCCC(=O)O)c2ccccc2)=C(C)C1=O (stereo unspecified) , state its measured cell viability.
## Output 46.5

## Input Using the record for O=C(Nc1cc(Cl)cc2c1[nH]c1cnccc12)c1cccnc1 , state its measured cell viability.
## Output 123

## Input Using the record for COc1cc(F)c(F)c(Nc2ccc(I)cc2F)c1N[S+](=O)([O-])C1(C[C@H](O)CO)CC1 , state its measured cell viability.
## Output 106

## Input Using the record for CCC1(c2ccccc2)C(=O)NCNC1=O , state its measured cell viability.
## Output 114

## Input Using the record for ClC1=CC=C(C=C1)C(C#N)C2=C(Cl)C=C(C=C2Cl)N3\N=C/C(=O)NC3=O (stereo unspecified) , state its measured cell viability.
## Output 109

## Input Using the record for CCOC(=O)c1ccc(OC(=O)CCCCCNC(=N)N)cc1 , state its measured cell viability.
## Output 95.7

## Input Using the record for CCN1CCN(c2ccc(Nc3cc(N(C)C(=O)Nc4c(Cl)c(OC)cc(OC)c4Cl)ncn3)cc2)CC1 , state its measured cell viability.
## Output 8.12

## Input Using the record for C[C@]12CCC(=O)C=C1CC[C@@H]1[C@@H]2[C@@H](O)C[C@@]2(C)[C@H]1CC[C@]2(O)C(=O)CO , state its measured cell viability.
## Output 92.5

## Input Using the record for CNc1nc(Nc2ccc(C(=O)N3CCOCC3)cc2OC)ncc1Cl , state its measured cell viability.
## Output 131

## Input Using the record for COc1ccc(-c2ccc3ncc4c(c3c2)n(-c2ccc(N3CCNCC3)c(C(F)(F)F)c2)c(=O)n4C)cn1 , state its measured cell viability.
## Output 5.1

----------
For each record, write down the corresponding cell viability.
System: P12-Ichikawa
Test: cell viability relative to DMSO control; higher = less cytotoxic
Settings: RPMI 5 mM glucose + 10% FBS; 48 h; 0.0632 µM
Give the number; % is assumed, so skip it.

## Input Using the record for C[C@]12CC[C@H]3[C@@H](CC[C@H]4NC(=O)\C=C/[C@]34C)[C@@H]1CC[C@@H]2C(=O)NC5=CC(=CC=C5C(F)(F)F)C(F)(F)F , state its measured cell viability.
## Output 111

## Input Using the record for Cc1coc2c1C(=O)C(=O)c1c-2ccc2c(C)cccc12 , state its measured cell viability.
## Output 128

## Input Using the record for OC[C@H]1O[C@H]([C@H](O)[C@@H]1O)N2\C=C/C(=O)NC2=O , state its measured cell viability.
## Output 97.6

## Input Using the record for CNC(=O)c1ccc2cc(C3(O)CCn4cncc43)ccc2c1 (stereo not given) , state its measured cell viability.
## Output 131

## Input Using the record for O=C(Nc1cc(Cl)cc2c1[nH]c1cnccc12)c1cccnc1 , state its measured cell viability.
## Output 119

## Input Using the record for COc1ccc([C@@H]2CC(=O)c3c(O)cc(O[C@@H]4O[C@H](CO[C@@H]5O[C@@H](C)[C@H](O)[C@@H](O)[C@H]5O)[C@@H](O)[C@H](O)[C@H]4O)cc3O2)cc1O , state its measured cell viability.
## Output 107

## Input Using the record for N#CCNC(=O)c1ccc(-c2ccnc(Nc3ccc(N4CCOCC4)cc3)n2)cc1 , state its measured cell viability.
## Output 111

## Input Using the record for CN[C@H]1CCC2=CC(=C(OC)C(=C2C/3=C/C=C(OC)\C(=O)/C=C13)OC)OC , state its measured cell viability.
## Output 22.2

## Input Using the record for CC(C)OC(=O)/C1=C/N(CC(C)(C)C2=C1[NH]C3=CC=CC=C23)C(=O)C4=CC=C(F)C(=C4)F , state its measured cell viability.
## Output 83.4

## Input Using the record for NNCCc1ccccc1 , state its measured cell viability.
## Output 110

## Input Using the record for C[C@]12COC(=O)C[C@@H]1CC[C@@H]1[C@@H]2CC[C@@]2(C)[C@H]1CC[C@]2(C)O , state its measured cell viability.
## Output 107

## Input Using the record for FC1=C(C=C(C\C2=N\NC(=O)C3=C2C=CC=C3)C=C1)C(=O)N4CCN(CC4)C(=O)C5CC5 , state its measured cell viability.
## Output 88.7

## Input Using the record for C[C@@H]1COCCN1c1cc(C2([S@+](C)(=N)[O-])CC2)nc(-c2ccnc3[nH]ccc23)n1 , state its measured cell viability.
## Output 109

## Input Using the record for CC(C)(O)CC[C@@H](O)[C@](C)(O)[C@H]1CC[C@@]2(O)C/3=C/C(=O)[C@@H]4C[C@@H](O)[C@@H](O)C[C@]4(C)[C@H]3CC[C@]12C , state its measured cell viability.
## Output 86.7

## Input Using the record for c1ccc(CCCN2CCN(CCOC(c3ccccc3)c3ccccc3)CC2)cc1 , state its measured cell viability.
## Output 93.9

----------
System: NOMO1
Assay: AUC of viability dose-response curve (% viability x log10 dose units); higher = less sensitive
Settings: HPLM + 10% dialyzed FBS; 48 h
Property name: AUC of viability dose-response curve
I only need the number, thanks.

## Input Using the record for C[C@@H](Oc1cc(-c2cnn(C3CCNCC3)c2)cnc1N)c1c(Cl)ccc(F)c1Cl , state its measured AUC of viability dose-response curve.
## Output 391

## Input Using the record for OC(c1cc(C(F)(F)F)nc2c(C(F)(F)F)cccc12)C1CCCCN1 (configuration not stated) , state its measured AUC of viability dose-response curve.
## Output 447

## Input Using the record for CC(C)(O)CC[C@@H](O)[C@](C)(O)[C@H]1CC[C@@]2(O)C/3=C/C(=O)[C@@H]4C[C@@H](O)[C@@H](O)C[C@]4(C)[C@H]3CC[C@]12C , state its measured AUC of viability dose-response curve.
## Output 410

## Input Using the record for Cc1cc(Nc2cc(NC(=O)c3c(Cl)cccc3Cl)ccn2)nc(N)n1 , state its measured AUC of viability dose-response curve.
## Output 373

## Input Using the record for COCC1(CO)C(=O)C2CCN1CC2 (configuration not stated) , state its measured AUC of viability dose-response curve.
## Output 435

## Input Using the record for CC(C)OC(=O)C(C(=O)OC(C)C)=C1S\C=C/S1 , state its measured AUC of viability dose-response curve.
## Output 425

## Input Using the record for CNCC(O)c1ccc(O)cc1 (configuration not stated) , state its measured AUC of viability dose-response curve.
## Output 446

## Input Using the record for C[N]1C=C(C=N1)C2=C3\C=N/NC(=O)C4=C3C(=CC(=C4)NC(=O)[C@H](N)C5CCCCC5)[NH]2 , state its measured AUC of viability dose-response curve.
## Output 403

## Input Using the record for C[C@]12CC[C@@H]3c4ccc(O)cc4CC[C@H]3[C@@H]1[C@@H](O)[C@@H](O)[C@@H]2O , state its measured AUC of viability dose-response curve.
## Output 461

## Input Using the record for OC(=O)C/1=C/C(=O)NC(=O)N1 , state its measured AUC of viability dose-response curve.
## Output 424

## Input Using the record for COc1ccc([C@@H]2CC(=O)c3c(O)cc(O[C@@H]4O[C@H](CO[C@@H]5O[C@@H](C)[C@H](O)[C@@H](O)[C@H]5O)[C@@H](O)[C@H](O)[C@H]4O)cc3O2)cc1O , state its measured AUC of viability dose-response curve.
## Output 477

## Input Using the record for OC[C@H]1O[C@H]([C@H](O)[C@@H]1O)N2\C=C/C(=O)NC2=O , state its measured AUC of viability dose-response curve.
## Output 448

## Input Using the record for CC(C)c1ccc2c(c1)c(SC(C)(C)C)c(CC(C)(C)C(=O)[O-])n2Cc1ccc(Cl)cc1 , state its measured AUC of viability dose-response curve.
## Output 452

## Input Using the record for CNCCCC12CCC(c3ccccc31)c1ccccc12 , state its measured AUC of viability dose-response curve.
## Output 429

## Input Using the record for CN[C@@H]1[C@@H](O)[C@@H](O[C@@H]2[C@@H](O)[C@H](O[C@H]3O[C@H](CN)[C@@H](O)[C@H](O)[C@H]3O)[C@@H](N)C[C@H]2NC(=O)[C@@H](O)CN)OC[C@]1(C)O , state its measured AUC of viability dose-response curve.
## Output 452

## Input Using the record for O=C(c1ccc(OCCN2CCCCC2)cc1)c1c(-c2ccc(O)cc2)sc2cc(O)ccc12 , state its measured AUC of viability dose-response curve.
## Output 466

## Input Using the record for OC[C@H]1O[C@@H](O[C@@H]2O\C=C(/[C@H]3C\C=C(CO)/[C@@H]23)C(O)=O)[C@H](O)[C@@H](O)[C@@H]1O , state its measured AUC of viability dose-response curve.
## Output 453
